B1: TPR 5TU (parent)
chain: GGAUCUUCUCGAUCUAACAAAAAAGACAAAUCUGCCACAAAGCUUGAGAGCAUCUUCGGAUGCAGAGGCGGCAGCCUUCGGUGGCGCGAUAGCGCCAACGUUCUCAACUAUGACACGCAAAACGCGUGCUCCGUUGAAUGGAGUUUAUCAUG

variants of: B1; test: polymerase ribozyme fitness, log enrichment relative to wild type (log ratio); higher = more active; in vitro selection for triplet polymerase activity
This sample holds only a part of the variants without activity.
Assign polymerase ribozyme fitness (log ratio) to each entry below.

Some variants with known polymerase ribozyme fitness (log ratio) results, for comparison:
mutant_id: C85A A120C A121U U130C U151G
experimental_readout: polymerase ribozyme fitness (log ratio)
readout_value: ≤ -4.2
//
mutant_id: G46C A52G A137G
experimental_readout: polymerase ribozyme fitness (log ratio)
readout_value: -2.44
//
mutant_id: G42A A52C
experimental_readout: polymerase ribozyme fitness (log ratio)
readout_value: -3.82
//
mutant_id: C14A G48A A91U G100A U101C U134A
experimental_readout: polymerase ribozyme fitness (log ratio)
readout_value: ≤ -4.2

Each of the following entries comes with a recorded value; kindly state polymerase ribozyme fitness (log ratio) for each.
1. A40C C85A U102G G143A
2. G42C C51U C103G
3. C93A A107G
4. A28G C93U C118A
5. A60G G68A U139A

Reply:
1: ≤ -4.2; 2: ≤ -4.2; 3: ≤ -4.2; 4: ≤ -4.2; 5: ≤ -4.2

// provenance: the RNAGym collection of RNA variant scans (doi:10.1073/pnas.2313332121)
